Where these numbers come from: the RNAGym collection of RNA variant scans (doi:10.1093/molbev/msab373)

Please provide measured reverse-splicing fitness for the entries that follow.
B1: Azoarcus group I ribozyme (parent)
chain: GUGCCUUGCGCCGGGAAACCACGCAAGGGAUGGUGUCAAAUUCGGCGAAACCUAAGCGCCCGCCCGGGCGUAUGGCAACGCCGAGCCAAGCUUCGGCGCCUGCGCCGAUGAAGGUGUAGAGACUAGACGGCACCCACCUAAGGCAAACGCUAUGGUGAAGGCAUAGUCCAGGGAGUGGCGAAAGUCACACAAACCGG

Variants of: B1
Experimental details: reverse-splicing fitness (ratio to wild type); higher = more active; in vitro selection; Mg2+ level not given

Task: Determine from records and report reverse-splicing fitness for C82G A111G A120C A145C C150G U176A
Result: 0.00574

Task: In one line, give reported reverse-splicing fitness of the entry C82G A145G C150G U176C .
Result: 0.0452

Task: Give the value of reverse-splicing fitness reported for the following: C82G A111C A120G A145G C169A U176G
Result: 0.00447

Task: Retrieve reverse-splicing fitness measured for A111G A120G C169U and print it.
Result: 0.236

Task: Please report reverse-splicing fitness for the following variant: C82G A111C A120U A145U C150A C169U U176G
Result: 0.00243

Task: Give reported reverse-splicing fitness value for C82G A145U C150G C169U
Result: 0.0092

Task: Return the recorded reverse-splicing fitness value; entry: C82G A111G A145G C150A C169A U176C
Result: 0.0222

Task: Please give measured reverse-splicing fitness of the following entry: C82U A120U C150G C169A U176G
Result: 0.00234

Task: Give the reported reverse-splicing fitness for this variant. C82U A120U A145C C150U C169G U176C
Result: 0.00188

Task: Give reverse-splicing fitness for the following variant: C82U A111G A145G C150U C169U U176G
Result: 0.005

Task: Indicate its recorded reverse-splicing fitness; the variant in question is C82U A111C A145C C150G C169U U176G
Result: 0.00606

Task: Please report the measured reverse-splicing fitness for A111C A120C C150G C169U
Result: 0.02

Task: Supply reverse-splicing fitness value. Item: A111U A120C A145U C150G C169G U176A
Result: 0.00683

Task: Find the measured reverse-splicing fitness of C82A A111C A145U C150A C169G U176C and report it.
Result: 0.022

Task: Consider the variant C82G A111U A120C C150A C169G U176C and give its recorded reverse-splicing fitness.
Result: 0.0267

Task: Give me measured reverse-splicing fitness, please, for this variant: C82A A111U A120G A145C C150U C169G
Result: 0.00823

Task: Please list reverse-splicing fitness recorded for the variant C82G A111G A145U C150A C169U U176G
Result: 0.00554

Task: # return recorded reverse-splicing fitness for entry C82G A111G C150U U176A
Result: 0.128

Task: Please give measured reverse-splicing fitness of the following entry: C82G A120U A145G C150U C169G U176A
Result: 0.00552

Task: Identify measured reverse-splicing fitness associated with A111G A120G A145G C150A U176A
Result: 0.0225

Task: Give reverse-splicing fitness for C82A A120C A145G C150U U176C
Result: 0.0551

Task: Let me know recorded reverse-splicing fitness for A111U A120G A145U C150A C169U U176A , thanks.
Result: 0.0271
